Just for reference, paper PMC6864627 is where these values come from.

# test system: α-glucosidase (Saccharomyces cerevisiae, UniProt P53341)
# Construct: purchased Sigma Inc
# Sequence (P53341 whole entry): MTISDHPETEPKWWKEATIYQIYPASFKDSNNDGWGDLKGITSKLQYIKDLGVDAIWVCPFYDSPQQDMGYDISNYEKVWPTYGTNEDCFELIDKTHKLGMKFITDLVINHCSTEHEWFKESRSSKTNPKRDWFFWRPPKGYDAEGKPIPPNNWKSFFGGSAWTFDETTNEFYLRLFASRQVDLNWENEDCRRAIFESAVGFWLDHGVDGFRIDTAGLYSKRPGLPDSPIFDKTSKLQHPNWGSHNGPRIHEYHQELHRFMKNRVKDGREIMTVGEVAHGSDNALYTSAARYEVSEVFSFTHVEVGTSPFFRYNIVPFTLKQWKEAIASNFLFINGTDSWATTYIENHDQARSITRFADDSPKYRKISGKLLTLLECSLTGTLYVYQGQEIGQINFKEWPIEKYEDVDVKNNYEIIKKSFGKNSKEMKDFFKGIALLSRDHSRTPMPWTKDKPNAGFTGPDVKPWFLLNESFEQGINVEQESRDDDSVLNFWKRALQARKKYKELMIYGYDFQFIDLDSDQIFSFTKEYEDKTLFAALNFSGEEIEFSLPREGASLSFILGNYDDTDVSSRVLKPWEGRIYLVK
# assay method text: α-glucosidase inhibition assay
# Format: biochemical
# details: 50 mM phosphate buffer pH 6.8; 0.057 units enzyme; standard acarbose
I'd appreciate it if you could supply IC50 values for the items below.

(Q) So what does the record say about IC50 for "COc1ccc(C(CSc2nnc3c(n2)[nH]c2ccccc23)=NNC(=S)Nc2ccccc2)cc1" ?
(A) 9.3 µM

(Q) Which IC50 value belongs to "Cc1cccc(C)c1NC(=S)NN=C(CSc1nnc2c(n1)[nH]c1ccccc12)c1cccc([N+](=O)[O-])c1" ?
(A) 7.5 µM

(Q) Value lookup for IC50; key = "COc1ccc(C(CSc2nnc3c(n2)[nH]c2ccccc23)=NNC(=S)Nc2ccc(Cl)c(Cl)c2)cc1"
(A) 2.3 µM

(Q) // returns reported IC50 for input "COc1ccc(C(CSc2nnc3c(n2)[nH]c2ccccc23)=NNC(=S)Nc2cccc(Cl)c2Cl)cc1"
(A) 1.3 µM

(Q) // lookup IC50 for "COc1ccc(C(CSc2nnc3c(n2)[nH]c2ccccc23)=NNC(=S)Nc2ccc([N+](=O)[O-])cc2)cc1"
(A) 2.6 µM

(Q) Field request: IC50 | item: "S=C(NN=C(CSc1nnc2c(n1)[nH]c1ccccc12)c1ccc(-c2ccccc2)cc1)Nc1ccccc1"
(A) 15.3 µM

(Q) Look up IC50: "O=[N+]([O-])c1ccc(C(CSc2nnc3c(n2)[nH]c2ccccc23)=NNC(=S)Nc2ccccc2)cc1"
(A) 6.8 µM
